This collection of values is drawn from the NIST ThermoML archive (doi:10.1021/acs.jced.8b00217).

assay: xn = mol fraction of the nth substance listed; settings: 298.15 K; 101.3 kPa; Liquid; Vibrating tube method; x1 = 0.7
quantity: mass density (kg/m3)

{"compound": "O=C1CCCC1 [cyclopentanone] + CCO", "mass density / kg/m3": 915.99}
{"compound": "O=C1CCCC1 [cyclopentanone] + CCCCCCO", "mass density / kg/m3": 894.17}
{"compound": "O=C1CCCC1 [cyclopentanone] + CCCCCCCCO", "mass density / kg/m3": 889.18}
{"compound": "O=C1CCCC1 [cyclopentanone] + CCCCO", "mass density / kg/m3": 906.81}
{"compound": "O=C1CCCC1 [cyclopentanone] + CCCCCCCCCCO", "mass density / kg/m3": 884.81}

====

experiment: refractive index (Na D-line) (dimensionless); xn = mol fraction of the nth substance listed; conditions: 298.15 K; 101.3 kPa; Liquid; Standard Abbe refractometry; x1 = 0.9
quantity: refractive index

{"molecule": "O=C1CCCC1 [cyclopentanone] + CCO", "test value": 1.4296}
{"molecule": "O=C1CCCC1 [cyclopentanone] + CCCCCCO", "test value": 1.4324}
{"molecule": "O=C1CCCC1 [cyclopentanone] + CCCCCCCCO", "test value": 1.4333}
{"molecule": "O=C1CCCC1 [cyclopentanone] + C1CCCCC1", "test value": 1.4325}
{"molecule": "O=C1CCCC1 [cyclopentanone] + CCCCO", "test value": 1.4315}
{"molecule": "O=C1CCCC1 [cyclopentanone] + CCCCCCCCCCO", "test value": 1.4341}

====

test: refractive index (Na D-line) (dimensionless); xn = mol fraction of the nth substance listed; settings: 298.15 K; 101.3 kPa; Liquid; Standard Abbe refractometry; x1 = 0.6
quantity: refractive index

{"compound": "O=C1CCCC1 [cyclopentanone] + CCCCO", "test value": 1.4212}
{"compound": "O=C1CCCC1 [cyclopentanone] + CCCCCCO", "test value": 1.4258}
{"compound": "O=C1CCCC1 [cyclopentanone] + CCCCCCCCCCO", "test value": 1.4332}
{"compound": "O=C1CCCC1 [cyclopentanone] + CCO", "test value": 1.4117}
{"compound": "O=C1CCCC1 [cyclopentanone] + C1CCCCC1", "test value": 1.4274}
{"compound": "O=C1CCCC1 [cyclopentanone] + CCCCCCCCO", "test value": 1.4302}

====

test: relative permittivity at various frequencies (dimensionless); xn = mol fraction of the nth substance listed; conditions: 298.15 K; 101.3 kPa; Liquid; Frequency=0.01 MHz; Coaxial cylinder capacitor; x1 = 0.5
quantity: relative permittivity

Illustrative cases are given below, each with its answer.
{"compound": "O=C1CCCC1 [cyclopentanone] + C1CCCCC1", "test value": 6.6}
{"compound": "O=C1CCCC1 [cyclopentanone] + CCCCO", "test value": 13.5}
{"compound": "O=C1CCCC1 [cyclopentanone] + CCCCCCCCO", "test value": 9.94}
{"compound": "O=C1CCCC1 [cyclopentanone] + CCCCCCO", "test value": 11.48}

(I) O=C1CCCC1 [cyclopentanone] + CCCCCCCCCCO
(II) O=C1CCCC1 [cyclopentanone] + CCO
Between I and II , which one shows the smaller relative permittivity number? Your answer should be the label of the entry you select.
I
